- targetEntity: CD137 (UniProt Q07011 24-255, limits assumed)
- Sequence (Q07011 24-255 limits assumed): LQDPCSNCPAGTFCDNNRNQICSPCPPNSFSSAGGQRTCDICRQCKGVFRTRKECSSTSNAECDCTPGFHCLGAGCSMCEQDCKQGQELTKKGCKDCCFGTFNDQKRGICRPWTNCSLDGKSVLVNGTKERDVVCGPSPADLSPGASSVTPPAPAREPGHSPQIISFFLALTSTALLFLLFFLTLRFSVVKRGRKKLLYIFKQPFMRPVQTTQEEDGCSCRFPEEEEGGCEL
- methodNotes: cell-based or functional assay
Label 1.0 for high-side Fold improvement in EC50 over BCY10000 on same plate (at or above 0.3 fold) and 0.0 for low-side Fold improvement in EC50 over BCY10000 on same plate (below it).

Fold improvement in EC50 over BCY10000 on same plate >= 0.3 fold for BCY12661 ([Ac]C[tBuAla]EE(dK)PYCFADPY[Nle]C[Dap(PYA)]; carries the palmitic acid azide of Example 8 (palmitic acid, γGlu, Lys(N3)); Cys residues bonded to TATA scaffold; [PYA]CP[1Nal][dD]CM[HArg]DWSTP[HyP]WC; Cys residues bonded to TATA scaffold) peptide 1: XPXDCMXDWSTPXWC peptide 2: CXEEKPYCFADPYXCX ?
1.0
